SYSTEM_TESTED: BRD2BD1 (Homo sapiens)
Construct: to the isolated BD1 and BD2 domains of BRD2, BRD3 and BRD4
Sequence (P25440 74-180 limits assumed): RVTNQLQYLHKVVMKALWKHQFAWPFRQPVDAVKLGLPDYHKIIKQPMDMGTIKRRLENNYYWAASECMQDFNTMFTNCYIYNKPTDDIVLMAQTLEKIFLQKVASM
MEASUREMENT_PROTOCOL: competitive FP assay, BRD2 BD1 -/+ FKBP12
Type: binding
Would you mind telling me the reported α BRD2BD1 of each entry?
Numbers only.

Examples with answers:
## Task Tell us which α BRD2BD1 value is on record for Cc1sc2c(c1C)C(c1ccc(C#CCNC(=O)COCCn3cc(C4CN(Cc5ccccn5)C(=O)C5CCCC4N5S(=O)(=O)c4cc(Cl)cc(Cl)c4)nn3)cc1)=NC(CC(=O)OC(C)(C)C)c1nnc(C)n1-2 (centres unmarked)
## Result 8.2

## Task Tell us which α BRD2BD1 value is on record for Cc1sc2c(c1C)C(c1ccc(Cl)cc1)=NC(CC(=O)NCCOCCn1cc(COCC3CN(C(C)c4ccccn4)C(=O)C4CCCC3N4S(=O)(=O)c3cc(Cl)cc(Cl)c3)nn1)c1nnc(C)n1-2 (centres unmarked)
## Result 16

## Task Tell us which α BRD2BD1 value is on record for Cc1sc2c(c1C)C(c1ccc(Cl)cc1)=NC(CC(=O)NCCOCCn1cc(COCC3CN(Cc4ccccn4)C(=O)C4CCCC3N4S(=O)(=O)c3cc(Cl)cc(Cl)c3)nn1)c1nnc(C)n1-2 (centres unmarked)
## Result 7.2

Count: 2. Required value per item: α BRD2BD1.
1. Cc1sc2c(c1C)C(c1ccc(Cl)cc1)=NC(CC(=O)N1CCC3(CC1)CC(n1cc(C4CN(Cc5ccccn5)C(=O)C5CCCC4N5S(=O)(=O)c4cc(Cl)cc(Cl)c4)nn1)C3)c1nnc(C)n1-2 (centres unmarked) [a13c]
2. Cc1sc2c(c1C)C(c1ccc(Cl)cc1)=N[C@@H](CC(=O)OC(C)(C)C)c1nnc(C)n1-2 [JQ1, (+)-JQ1, reference compound]

## Result
1. 34
2. 1.0
